Target: T1, Nrd1 CID R28D (S. cerevisiae, UniProt P53617 1-153, R28D)
T1 construct: the construct for anisotropy is made as described previously (Kubicek et al, 2012); also called CID(R28D)-His6; source: recombinant, produced and purified as described previously (Kubicek et al, 2012); plasmid with T7 promoter
T1 sequence (looked up): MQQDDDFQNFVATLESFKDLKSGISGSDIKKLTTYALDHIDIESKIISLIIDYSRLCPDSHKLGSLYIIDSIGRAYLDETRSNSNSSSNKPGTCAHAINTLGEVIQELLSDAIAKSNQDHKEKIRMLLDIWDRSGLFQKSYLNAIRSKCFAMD
Assay: fluorescence polarisation; fluorescence anisotropy, equilibrium binding of Nrd1 CID variants to FAM-labelled NIM peptides; 10°C, 50 mM Na2HPO4, 100 mM NaCl, pH 8; 1:1 model with non-specific binding (DynaFit)
Details: both partners purified
Ends that are not written are not given here. FAM = 5,6-carboxyfluorescein
observation type: Kd (µM)
Response body: numeric value in µM, unit text excluded.

Q. Complete the entry with Kd for {FAM}-DDDEDDYTPSIS (peptide, UniProt Q00416 2052-2063, looked up, Sen1, S. cerevisiae, fragment harbouring aa 2,052-2,063; source: synthetic peptide) [Sen1 NIM peptide (Sen1 aa 2,052-2,063)]
A. 78.2
